Give measured log10 of TGI for each item. Keep answers brief.
- System: KM12 colon
- Test Description: NCI tumour cell line growth inhibition, 48 h
# values: log10(TGI), units µM

(Q) Quick check: log10 of TGI of "O=C(NCCN1CCNCC1)c1ccc(Nc2nc3ccccc3c3occc23)cc1" ?
(A) 1.61

(Q) Same lookup for "C/C1=C\CC[C@@](C)(O)[C@@H]2C[C@H](CC/C(C)=C/CC1)C1(CC1)C(=O)O2" , please.
(A) 1.84

(Q) Same lookup for "Cc1c(C)c(CC(=O)N2CC2)c(C)c(C)c1CC(=O)N1CC1" , please.
(A) 1.61

(Q) Same lookup for "CCOC(=O)N1CCN(CCCCCOc2ccccc2C2CCCCC2)CC1" , please.
(A) 1.36

(Q) Same lookup for CC(C)(C)c1ccc(OC2CCO2)cc1 (configuration not stated) , please.
(A) 1.85

(Q) Same lookup for O=C1C(C(O)(C(F)(F)F)C(F)(F)F)CCC1C(O)(C(F)(F)F)C(F)(F)F (configuration not stated) , please.
(A) 1.57

(Q) Same lookup for "CCN(CCCl)c1cc(CN(C)C)cc(NC(=O)c2ccc(C(=O)Nc3cccc(CN(C)C)c3)cc2)c1" , please.
(A) 0.57

(Q) Same lookup for "CN(C)c1ccc(Cc2cc3c(O)ccc(O)c3cc(Cc3ccc(N(C)C)cc3)c2=O)cc1" , please.
(A) 1.60

(Q) Same lookup for "COc1ccc([C@H]2C=[N+]([O-])O[C@H](OC3CCCC3)[C@@H]2OC(C)=O)cc1OC" , please.
(A) 1.86

(Q) Same lookup for "Cc1ccc2oc(=O)c(-c3ccccc3)nc2c1" , please.
(A) 1.70

(Q) Same lookup for "[2H]c1nc(=Nc2cc(NC(=O)C=C)c(N(C)CCN(C)C)cc2OC)[nH]c(-c2cn(C([2H])([2H])[2H])c3ccccc23)c1[2H]" , please.
(A) 1.06

(Q) Same lookup for "C=CC(=O)N1C/C(=C\c2ccc(Cl)cc2)C(=O)/C(=C/c2ccc(Cl)cc2)C1" , please.
(A) -0.06

* * *

- Tested on: TK-10 renal
- Test Description: NCI tumour cell line growth inhibition, 48 h
Give measured TGI for each item. Keep answers brief.

(Q) Quick check: TGI of CCOC(=O)C1CCC(=O)N1C(=O)c1ccccc1Cl (stereo not drawn) ?
(A) > 100 µM

(Q) Same lookup for "c1cnn2ncc(-c3ccnc(Nc4ccc5c(c4)OCCO5)n3)c2c1" , please.
(A) 0.224 µM

(Q) Same lookup for "C/C(=C\CO)CC/C=C(\C)CNc1ccc([N+](=O)[O-])cc1" , please.
(A) 46.7 µM

(Q) Same lookup for C[C@H]1[C@H](C)CC[C@]2(C(=O)OC3OC(CO)C(O)C(O)C3O)CC[C@]3(C)C(=CC[C@@H]4[C@@]5(C)C[C@H]6OC(=O)c7cc(O)c(O)c(O)c7-c7c(cc(O)c(O)c7O)C(=O)O[C@@H]6C(CO)(CO)[C@@H]5CC[C@]43C)[C@H]12 (stereo partly drawn) , please.
(A) > 100 µM

(Q) Same lookup for "O=C1C=CC(=O)C(CNc2ccc(C(=O)OCc3ccccc3)cc2)=C1" , please.
(A) 14.9 µM

(Q) Same lookup for "Cc1ccc(-n2nc(C(C)(C)C)cc2NC(=O)NCc2cc(F)ccc2Oc2ccc3c(cnn3CCO)c2)cc1" , please.
(A) > 91.9 µM

(Q) Same lookup for C=C1C(=O)C23C(O)CC4C5(C)CCCC4(C(O)OC5)C2C(OC(C)=O)CC1C3O (stereo not drawn) , please.
(A) 23.1 µM

(Q) Same lookup for "Cc1nc(-c2cccnc2)sc1C(=O)/C=C/c1cccc([N+](=O)[O-])c1" , please.
(A) > 100 µM

(Q) Same lookup for COC(=O)C1C(=O)N(CCc2c[nH]c3ccccc23)C[C@@H]2CCC(=O)C[C@H]12 (stereo partly drawn) , please.
(A) > 100 µM

(Q) Same lookup for C(=C\c1ccccc1)/COc1ccccc1C(N1CCOCC1)n1nc2ccccc2n1 (stereo not drawn) , please.
(A) 32.4 µM

(Q) Same lookup for "Cc1cc(C)c(/C=C(\C(=C/c2c(C)cc(C)cc2C)[N+](=O)[O-])[N+](=O)[O-])c(C)c1" , please.
(A) > 100 µM

(Q) Same lookup for "O=C1C2=C(CCC2)Nc2cccc3ncn1c23" , please.
(A) 75.7 µM

(Q) Same lookup for CCCCCCCCCCCCCCCCCCOCC(COCCOCC[N+]1(CCCCCC(=O)[O-])CCCC1)Oc1ncccn1 (stereo not drawn) , please.
(A) 20.3 µM

(Q) Same lookup for COc1ccc(C2Oc3c(c(O)cc4c3[C@H](c3ccc(O)cc3O)[C@H](O)C(c3ccc(O)c(O)c3)O4)C[C@@H]2O)cc1O (stereo partly drawn) , please.
(A) > 100 µM

(Q) Same lookup for "O=[N+]([O-])c1cc(Cl)ccc1Sc1ccccc1" , please.
(A) > 100 µM

(Q) Same lookup for "Nc1ccc(-c2nn3c(COc4ccc(Cl)cc4)nnc3s2)cc1" , please.
(A) > 100 µM

(Q) Same lookup for "COc1ccc([C@H]2C=[N+]([O-])O[C@H](OC3CCCC3)[C@@H]2OC(C)=O)cc1OC" , please.
(A) 68.2 µM

(Q) Same lookup for Cc1cccc(C)c1N1C(=O)C(=O)C(c2nc3ccccc3s2)C(=Nc2cccc3c(=O)[nH][nH]c(=O)c23)C1=O (stereo not drawn) , please.
(A) > 100 µM

* * *

- Test system: NCI-H460 lung
- Test Description: NCI tumour cell line growth inhibition, 48 h
Property Label: TGI

(Q) Quick check: TGI of "Cn1c(=O)nc2n(-c3ccc(Cl)c(C(F)(F)F)c3)c3ccccc3nc-2c1=O" ?
(A) > 100 µM

(Q) Same lookup for "Cc1nc(-c2cccnc2)sc1C(=O)/C=C/c1cccc([N+](=O)[O-])c1" , please.
(A) > 100 µM

(Q) Same lookup for O=C1C(C(O)(C(F)(F)F)C(F)(F)F)CCC1C(O)(C(F)(F)F)C(F)(F)F (stereo not drawn) , please.
(A) > 100 µM

* * *

- System: A498 renal
- Test Description: NCI tumour cell line growth inhibition, 48 h
Property Label: TGI

(Q) Quick check: TGI of "Fc1ccc2nc(-c3cc(-c4ccc5c(c4)OCO5)n[nH]3)[nH]c2c1" ?
(A) > 100 µM

(Q) Same lookup for "CCNc1ncnc2sc(SCc3ccccc3)nc12" , please.
(A) > 100 µM

(Q) Same lookup for O=C1[C@H]2ON(c3ccccc3)C(c3ccco3)[C@H]2C(=O)N1c1ccc(Cc2ccc(N3C(=O)[C@@H]4ON(c5ccccc5)C(c5ccco5)[C@@H]4C3=O)cc2)cc1 (some centres not stated) , please.
(A) > 100 µM

(Q) Same lookup for CCCCCCCCCCCC1CC(=O)NCCCN(C)CCCCN(C)CCCN1C (configuration not stated) , please.
(A) 3.14 µM

(Q) Same lookup for "CC(=O)n1c(=O)c2cc3c(=O)n(-c4cccc(C#N)c4)c(=O)c3cc2c1=O" , please.
(A) > 100 µM

(Q) Same lookup for COP(=O)(OC)C(Nc1ccc(Cc2ccc(NC(c3ccco3)P(=O)(OC)OC)cc2)cc1)c1ccco1 (configuration not stated) , please.
(A) 56 µM

(Q) Same lookup for N#C/C(=C1\SC(N=Nc2ccc(Cl)cc2)C(=O)N1c1ccccc1)c1nc2ccccc2[nH]1 (configuration not stated) , please.
(A) 58.4 µM

(Q) Same lookup for "O=C(O)CCCCCCCCC(=O)O" , please.
(A) > 23.2 µM

(Q) Same lookup for "CC(=Nc1ccc(S(N)(=O)=O)cc1)c1c(O)[nH]c2ccccc12" , please.
(A) > 25 µM

(Q) Same lookup for "COc1ccc2[nH]c(-c3ccc(O)cc3)cc(=O)c2c1" , please.
(A) 0.725 µM

(Q) Same lookup for O=C(NN1C(=O)CSC1c1cccc(F)c1)c1ccncc1 (configuration not stated) , please.
(A) > 100 µM

(Q) Same lookup for O=S1SC(=S)C2C=CC=CC21 (configuration not stated) , please.
(A) > 100 µM

(Q) Same lookup for COC(=O)N1N=C(c2ccccc2)C1c1ccccc1 (configuration not stated) , please.
(A) > 100 µM

(Q) Same lookup for COc1cc(C2c3cc4c(cc3[C@@H](Nc3ccc5c(c3)OCCO5)C3COC(=O)[C@H]23)OCO4)cc(OC)c1O (some centres not stated) , please.
(A) 1.42 µM

(Q) Same lookup for "COc1ccc(OC)c2sc(N3C(=O)/C(=C/c4cccc([N+](=O)[O-])c4)N=C3c3ccccc3)nc12" , please.
(A) > 100 µM

(Q) Same lookup for "O=S1CSSC1" , please.
(A) > 100 µM

(Q) Same lookup for "COc1ccc(-n2nc(C)c3c(Nc4ccc(NC(=O)Nc5ccc(Cl)c(C(F)(F)F)c5)cc4)ncnc32)cc1" , please.
(A) 5.67 µM
